- assay summary: NCI Yeast Anticancer Drug Screen. Data for the bub3 strain (AID 167)
- assay context: S. cerevisiae bub3 mutant strain, hits give high values; at 50.0 µM unless noted
About 79,000 compounds went through this panel and 15% of them were active in at least one assay; those are over-represented in the sample as a whole.
readout name: growth inhibition (%)
Record the value in %, omitting the unit from your answer.

Check out these entries, answers already filled in.
# compound, readout name, meas value
records = [
    ("COc1c(OC(C)=O)ccc(/C=C2\\N=C(C)OC2=O)c1[N+](=O)[O-]", "growth inhibition", 11.1),
    ("CCCCCN1C(=O)c2ccccc2C1=O", "growth inhibition", 6.3),
]

Q. What growth inhibition value was documented for this compound, COc1cc(OC)c2c(c1)C(C)(C)CCC2(C)C ?
A. 16.2

Q. Same question, CCOc1ccccc1Nc1ccc(N)cc1S(=O)(=O)O this time
A. 1.35

Q. Queued: CC1CCCCN1Cc1ccccc1COC(=O)c1ccc([N+](=O)[O-])cc1Cl (stereo not given)
A. 21.4
